Molecular target: HIV-1 JR-CSF Env T303A (HIV-1 JR-CSF) (UniProt P20871)
Assay: cell-based or functional assay
The reader will find reported Fold IC50 increase relative to wild-type values listed item by item below.

- Binder: "PGT-125 (antibody, V domains shown) VH: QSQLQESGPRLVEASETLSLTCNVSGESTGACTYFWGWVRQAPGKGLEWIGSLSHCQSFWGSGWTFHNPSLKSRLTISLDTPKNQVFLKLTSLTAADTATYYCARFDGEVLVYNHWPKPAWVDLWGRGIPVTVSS VL: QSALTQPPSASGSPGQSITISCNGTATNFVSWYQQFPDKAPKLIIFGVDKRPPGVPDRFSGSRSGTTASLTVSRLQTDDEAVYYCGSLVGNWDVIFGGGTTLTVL"
  Fold IC50 increase relative to wild-type: "> 250 fold"
- Binder: "PGT-123 (antibody, V domains shown) VH: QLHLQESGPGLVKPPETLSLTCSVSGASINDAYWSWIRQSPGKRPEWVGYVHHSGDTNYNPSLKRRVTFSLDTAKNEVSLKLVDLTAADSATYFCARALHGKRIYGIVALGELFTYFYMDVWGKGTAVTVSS VL: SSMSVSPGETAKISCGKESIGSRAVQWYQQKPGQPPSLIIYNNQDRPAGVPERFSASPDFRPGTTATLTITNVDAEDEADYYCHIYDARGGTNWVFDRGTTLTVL"
  Fold IC50 increase relative to wild-type: "1.1 fold"
- Binder: "PGT-126 (antibody, V domains shown) VH: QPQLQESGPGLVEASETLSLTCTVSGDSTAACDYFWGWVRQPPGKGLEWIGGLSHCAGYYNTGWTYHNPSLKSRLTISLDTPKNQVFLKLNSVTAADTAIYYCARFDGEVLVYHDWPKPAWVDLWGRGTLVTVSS VL: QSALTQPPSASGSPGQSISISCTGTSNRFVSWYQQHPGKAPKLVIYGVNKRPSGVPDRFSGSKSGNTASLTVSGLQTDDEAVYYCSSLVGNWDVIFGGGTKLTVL"
  Fold IC50 increase relative to wild-type: "> 250 fold"
